Test: Volume of distribution at steady state in Beagle dog plasma at 1 mg/kg, iv at […] LC-MS/MS analysis
Format: ADME, organism-based, Canis lupus familiaris
Conditions: time 0.083 hrs, read-out: Vdss
parameter: Vd at […] (L/kg)
Report only the number, with the unit L/kg understood.

In: Value lookup for Vd at […]; key = Cc1cn(-c2cc(NC(=O)c3ccc(C)c(Nc4nccc(-c5cccnc5)n4)c3)cc(C(F)(F)F)c2)cn1 [NILOTINIB]
Out: 0.55

----------
Tested on: Ebolavirus
Assay: microbe, parasite or virus in culture
Type: functional, organism-based
Conditions: Orthoebolavirus
Recorded EC50 by entry
Report only the number, with the unit µM understood.

- molecule: "CN1CCC(Nc2ncc3ncnc(Nc4ccc(F)c(Cl)c4)c3n2)CC1 [FALNIDAMOL]"
  EC50 [µM]: 1.1

In: Value lookup for EC50; key = NCC(=O)Nc1ccc(-n2nc(C(F)(F)F)cc2-c2ccc3c(ccc4ccccc43)c2)cc1 [AR-12]
Out: 0.3

----------
Tested on: Marburgvirus
Assay: microbe, parasite or virus in culture
Type: functional, organism-based
Details: Orthomarburgvirus, MDM
parameter: IC50 (nM)
Report only the number, with the unit nM understood.

In: Query IC50 on Marburgvirus for Cc1cccc(/C=N/Nc2cc(N3CCOCC3)nc(OCCc3ccccn3)n2)c1
Out: 10

----------
Biological target: Inhibitor of nuclear factor kappa-B kinase subunit epsilon (Homo sapiens, UniProt Q14164)
Sequence (Q14164 whole entry): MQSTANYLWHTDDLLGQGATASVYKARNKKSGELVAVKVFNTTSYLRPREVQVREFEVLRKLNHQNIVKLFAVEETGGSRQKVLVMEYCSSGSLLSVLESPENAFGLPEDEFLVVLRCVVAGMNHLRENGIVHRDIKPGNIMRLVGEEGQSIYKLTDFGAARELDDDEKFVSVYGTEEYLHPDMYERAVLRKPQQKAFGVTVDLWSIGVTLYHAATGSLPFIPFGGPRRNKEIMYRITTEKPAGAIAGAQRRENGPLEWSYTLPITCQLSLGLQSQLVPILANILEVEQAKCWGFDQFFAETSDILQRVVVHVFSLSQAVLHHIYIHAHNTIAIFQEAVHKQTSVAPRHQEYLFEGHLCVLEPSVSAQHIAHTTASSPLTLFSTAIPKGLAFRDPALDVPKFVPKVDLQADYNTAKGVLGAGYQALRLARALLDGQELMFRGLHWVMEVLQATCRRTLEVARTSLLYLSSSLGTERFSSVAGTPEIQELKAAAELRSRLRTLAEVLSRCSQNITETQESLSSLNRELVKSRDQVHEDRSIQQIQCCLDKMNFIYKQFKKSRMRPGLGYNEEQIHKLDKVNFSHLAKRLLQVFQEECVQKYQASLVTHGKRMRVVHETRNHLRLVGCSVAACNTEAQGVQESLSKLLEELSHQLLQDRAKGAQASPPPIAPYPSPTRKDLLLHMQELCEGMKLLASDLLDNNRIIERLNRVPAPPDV
Test: Inhibition of IKK epsilon (unknown origin)
parameter: IC50 (nM)
Report only the number, with the unit nM understood.

In: Value lookup for IC50; key = O=C(NCCCNc1nc(Nc2cccc(NC(=O)N3CCCC3)c2)ncc1I)c1cccs1
Out: 41

----------
Assay: Cytotoxicity against human CEM-T4 cells
Assay type: toxicity, cell-based
parameter: CC50

In: Value lookup for CC50; key = NC(=S)n1nc(-c2ccc([N+](=O)[O-])cc2)c(/N=N/c2cccc(Cl)c2)c1O
Out: > 10 µM

----------
Tested on: SARS-CoV-2
Assay: microbe, parasite or virus in culture
Assay type: functional, organism-based
Conditions: Severe acute respiratory syndrome coronavirus 2
parameter: IC50 (nM)
Report only the number, with the unit nM understood.

In: Value lookup for IC50; key = CNCc1ccc(-c2cc(-c3nc(-c4ccc(S(=O)(=O)C(C)C)cc4)cnc3N)on2)cc1 [BERZOSERTIB]
Out: 4.28

----------
Experiment: in vitro
Conditions: human, pbl
parameter: CC50

In: Value lookup for CC50; key = Oc1ccc(Nc2nc(-c3ccc(Cl)cc3)cs2)cc1
Out: > 5 µM

----------
Molecular target: Cyclin-dependent kinase 2 (Homo sapiens, UniProt P24941)
parameter: pIC50
As a rule, pIC50 stands for the negative log10 of the concentration, concentration in M.

In: Value lookup for pIC50; key = CCCc1cnc(NC(=O)[C@@H](C)c2ccc(NC(C)=O)cc2)s1
Out: 7.51

----------
Recorded CC50 by entry
Assay: in vitro
Conditions: human, Huh-7 cells

Consider the worked cases shown below.
- molecule: "O=C(Cc1cccs1)Nc1cccc(-c2ccc3nnc(-c4cccnc4)n3n2)c1"
  measurement: "> 50 µM"
- molecule: "CC(C)S(=O)(=O)n1c(N)nc2ccc(/C(=N/O)c3ccccc3)cc21"
  measurement: "25 µM"
- molecule: "CC(C)c1ccc(NC(=O)c2csc(C(O)C(C)C)n2)cc1 (stereo not given)"
  measurement: "> 50 µM"

In: Value lookup for CC50; key = NCC(=O)Nc1ccc(-n2nc(C(F)(F)F)cc2-c2ccc3c(ccc4ccccc43)c2)cc1
Out: > 10 µM

In: Value lookup for CC50; key = CO[C@H]1C[C@@H]2CC[C@@H](C)[C@@](O)(O2)C(=O)C(=O)N2CCCC[C@H]2C(=O)O[C@H]([C@H](C)C[C@@H]2CC[C@@H](OCCO)[C@H](OC)C2)CC(=O)[C@H](C)/C=C(\C)[C@@H](O)[C@@H](OC)C(=O)[C@H](C)C[C@H](C)/C=C/C=C/C=C/1C
Out: > 10 µM

----------
Test: Cytotoxicity against human PC-3 cells
Format: toxicity, cell-based
parameter: CC50

In: Value lookup for CC50; key = Ic1cccc(/C=N/Nc2nc(N3CCOCC3)nc(N(c3ccccc3)c3ccccc3)n2)c1
Out: > 10 µM

----------
Tested on: Zika virus
Assay: microbe, parasite or virus in culture
parameter: pEC50
As a rule, pEC50 stands for the negative log10 of the concentration, concentration in M.

In: Query pEC50 on Zika virus for c1cncc(CN2CCC(n3ncc4c(N5CCOCC5)nc(-c5ccc6[nH]ccc6c5)nc43)CC2)c1
Out: 5.64

----------
Molecular target: Cyclin-dependent kinase 7 (Homo sapiens)
Sequence (P50613 whole entry): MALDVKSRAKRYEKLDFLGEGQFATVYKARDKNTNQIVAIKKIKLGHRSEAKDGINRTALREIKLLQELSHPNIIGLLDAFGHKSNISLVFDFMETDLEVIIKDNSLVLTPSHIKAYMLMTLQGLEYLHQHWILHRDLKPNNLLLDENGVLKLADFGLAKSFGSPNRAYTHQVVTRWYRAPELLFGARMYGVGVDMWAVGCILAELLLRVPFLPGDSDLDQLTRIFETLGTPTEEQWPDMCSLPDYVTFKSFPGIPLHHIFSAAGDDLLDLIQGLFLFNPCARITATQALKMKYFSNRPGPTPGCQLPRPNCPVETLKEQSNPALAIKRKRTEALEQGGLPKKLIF
parameter: IC50 (nM)
Report only the number, with the unit nM understood.

In: Query IC50 on Cyclin-dependent kinase 7 (Homo sapiens) for CC(C)c1[nH]n(-c2c(Cl)cccc2Cl)c2nc(Cc3ccc(OCCO)cc3)nc(=O)c1-2
Out: 71

----------
Test system: Influenza A virus
Test: microbe, parasite or virus in culture
Details: FPV H7N7
parameter: EC50 (µM)
Report only the number, with the unit µM understood.

In: Value lookup for EC50; key = N#CC(=C(/N)Sc1ccccc1N)/C(C#N)=C(\N)Sc1ccccc1N
Out: 82.7

----------
Recorded pEC50 by entry
Tested on: Lyssavirus rabies
Test: microbe, parasite or virus in culture
Assay type: functional, organism-based
As a rule, pEC50 stands for the negative log10 of the concentration, concentration in M.

- compound.structure: "CC(=O)c1c(O)c(C)c(O)c(Cc2c(O)c3c(c(C(=O)/C=C/c4ccccc4)c2O)OC(C)(C)C=C3)c1O"
  target.entity: "Lyssavirus rabies"
  parameter: "pEC50"
  measurement: 6.00

// switching to the query compound
In: Value lookup for pEC50; key = CC(C)(C)c1cc(C=C(C#N)C#N)cc(C(C)(C)C)c1O
Out: 6.05

----------
Test system: Zika virus
Test: Antiviral activity against ZIKV-PRVABC59 infected in Neuronal cell line measured after 24 hrs
Assay type: functional, organism-based
parameter: pIC50
As a rule, pIC50 stands for the negative log10 of the concentration, concentration in M.

In: Value lookup for pIC50; key = NCC(=O)Nc1ccc(-n2nc(C(F)(F)F)cc2-c2ccc3c(ccc4ccccc43)c2)cc1
Out: 5.70

----------
Test: Cytotoxicity against human astrocyte cells
Assay type: toxicity, cell-based
parameter: CC50

In: Value lookup for CC50; key = CCCc1cnc(NC(=O)[C@@H](C)c2ccc(NC(C)=O)cc2)s1
Out: > 10 µM

----------
Test system: Vesicular stomatitis virus
Assay: microbe, parasite or virus in culture
parameter: EC50
# do not omit the unit; it follows the number

In: Value lookup for EC50; key = CN1CCC(Nc2ncc3ncnc(Nc4ccc(F)c(Cl)c4)c3n2)CC1
Out: 30.9 µM

----------
Target: Cyclin-dependent kinase 4 (Homo sapiens, UniProt P11802)
Sequence (P11802 whole entry): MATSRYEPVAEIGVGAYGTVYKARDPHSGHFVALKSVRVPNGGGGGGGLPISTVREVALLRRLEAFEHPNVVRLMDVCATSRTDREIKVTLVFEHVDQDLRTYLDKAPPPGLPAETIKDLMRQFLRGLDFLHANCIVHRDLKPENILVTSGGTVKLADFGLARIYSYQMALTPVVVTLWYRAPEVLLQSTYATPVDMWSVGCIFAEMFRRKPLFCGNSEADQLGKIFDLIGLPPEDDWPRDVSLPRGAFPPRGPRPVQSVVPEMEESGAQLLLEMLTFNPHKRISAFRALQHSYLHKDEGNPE
parameter: IC50 (nM)
Report only the number, with the unit nM understood.

In: Query IC50 on Cyclin-dependent kinase 4 (Homo sapiens, UniProt P11802) for CC(C)[C@H](CO)Nc1nc(Nc2cccc(Cl)c2)c2ncn(C(C)C)c2n1 [PURVALANOLA]
Out: 4

----------
Experiment: Volume of distribution at steady state in CD-1 mouse plasma at 10 mg/kg, iv at […] LC-MS/MS analysis
Type: ADME, organism-based
Details: time 0.083 hrs, read-out: Vdss
parameter: Vd at […] (L/kg)
Report only the number, with the unit L/kg understood.

In: Value lookup for Vd at […]; key = Cc1cn(-c2cc(NC(=O)c3ccc(C)c(Nc4nccc(-c5cccnc5)n4)c3)cc(C(F)(F)F)c2)cn1
Out: 0.55

----------
Assay: Cytotoxicity against human LN-18 cells
Assay type: toxicity, cell-based
parameter: CC50

In: Value lookup for CC50; key = C1=C/COCc2cc(ccc2OCCN2CCCC2)Nc2nccc(n2)-c2cccc(c2)COC/1
Out: > 1000 nM

----------
Assay: in vitro
Details: human, hek-293t
Recorded CC50 by entry

Consider the worked cases shown below.
- compound.structure: "O=c1cc(N2CCOCC2)oc2c(-c3ccccc3)cccc12"
  measurement: "> 20 µM"
- compound.structure: "Cn1c(=O)n(-c2ccc(C(C)(C)C#N)cc2)c2c3cc(-c4cnc5ccccc5c4)ccc3ncc21"
  measurement: "> 5 µM"

// switching to the query compound
In: Value lookup for CC50; key = CN1CCCN(C(=O)c2cccc(-c3ccc(/C=C4/C(=O)Nc5ccc(Cl)cc54)o3)c2)CC1
Out: > 8 µM

----------
Assay: Cytotoxicity against human HCT-116 cells
Type: toxicity, cell-based
parameter: CC50
# do not omit the unit; it follows the number

In: Value lookup for CC50; key = CC(C)c1[nH]n(-c2c(Cl)cccc2Cl)c2nc(Cc3ccc(OCCO)cc3)nc(=O)c1-2
Out: 40 nM

----------
Tested on: Influenza A virus
Assay: microbe, parasite or virus in culture
Assay type: functional, organism-based
Conditions: H3N2
parameter: IC50 (nM)
Report only the number, with the unit nM understood.

In: Value lookup for IC50; key = Cc1ccc([N+](=O)[O-])cc1S(=O)(=O)N(C)/N=C/c1cnc2ccc(Br)cn12
Out: 40
